# Tested on: CAKI-1 renal
# experimental.details: NCI-60 one-dose screen, 48 h
# experimental.context: 10 µM unless noted
About 83,000 compounds went through this panel and 20% of them were active in at least one assay; those are over-represented in the sample as a whole. Activity calls are given as the source filed them. Rule for the calls: active = growth percent below 10; inactive = the rest.
The reply should be one of these categories: active, inactive

For orientation, consider the following solved cases.
| compound | discrete.label |
| --- | --- |
| CN(C)CCC(=O)Nc1ccc(-n2cc(-c3cccc(NC(=S)Nc4cccc(-c5cn(-c6ccc(NC(=O)CCN(C)C)cc6)nn5)c4)c3)nn2)cc1 | inactive |
| OC(c1cc(-c2cccc(Cl)c2)nc2ccccc12)C1CCCCN1 (configuration not stated) | active |
| O=C1c2cccc(NCCN=Cc3ccccc3O)c2C(=O)c2c(NCCN=Cc3ccccc3O)cccc21 | inactive |
| CC(C)=CCNc1ncnc2c1ncn2C1OC(COP(=O)(O)O)C(O)C1O (configuration not stated) | inactive |
| C[C@H]1C(=O)N2c3ccccc3[C@@]3(O)C[C@@H](n4cnc5ccccc5c4=O)C(=O)N1[C@@H]23 | inactive |

Lab log entry: COc1ccc2c(c1)[n+](=O)c(C(=O)/C=C/c1cc(OC)c(OC)c(OC)c1)c(C)n2[O-] — outcome as called in the assay?
inactive

Lab log entry: Cc1cc(Cl)ccc1Nc1nc(C(F)(F)F)ccc1C(=O)N/N=C/c1ccc(Cl)cc1 — outcome as called in the assay?
active

Lab log entry: COc1cc(Cl)cc(-c2nn(-c3cccc(NC(=O)c4cc(C(F)(F)F)cc(C(F)(F)F)c4)c3)cc2-c2ccncc2)c1 — outcome as called in the assay?
inactive

Lab log entry: CC(C)CNc1nc(N=[N+]=[N-])nc(NCC(C)C)n1 — outcome as called in the assay?
active

Lab log entry: N#Cc1ncc(-c2ccc(C(F)(F)F)cc2)c(NC2CCCCCC2)n1 — outcome as called in the assay?
inactive

Lab log entry: CC1(C)CC2(C)CC(=O)C1C(C(=O)O)C2C(=O)O (configuration not stated) — outcome as called in the assay?
inactive

Lab log entry: CC(C)OP(=O)(OC(C)C)c1ncc(-c2ccc(C(F)(F)F)cc2)c(NC2CCCCCC2)n1 — outcome as called in the assay?
active

The reported measurements were obtained from PubChem BioAssay (NCI).
